biological target: T1, human P2X4 peptide (human, UniProt Q99571 301-313); assay: indirect ELISA, wells coated with human P2X4 peptide, anti-His detection
T1 construct: range 301-313; The range 301-313 is stated for rat P2X4R, with the human peptide as its 'human form'; also called human Target P2X4R peptide; thirteen amino acid extracellular peptide fragment of human P2X4 receptor
T1 peptide (looked up): RDLAGNEQRTLIK
pKd: −log10 of the molar value.
observable: pKd

binder: P2X4-scFv95 (parental murine anti-P2X4R scFv) (scFv, also called mscFv95; clone 95) scFv: MAEVKLVESGGGLVQPGGSLRLSCATSGFTFTDYYMSWVRQPPGKALEWLGFIRNKANGYTTEYSASVKGRFTISRDNSQSILYLQMNTLRAEDSATYYCARWEGDLLYAMDYWGQGTSVTVSSGGGGSGGGGSGGGGGSGGGGSDIQMTQTTSSLSASLGDRVTISCSASQGISNYLNWYQQKPDGTVKLLIYYTSSLHSGVPSRFSGSGSGTDYSLTISNLEPEDIATYYCQQYSKLPWTFGGGTKLEIKRADAAALEHHHHHH
observable: pKd
quantitativeResult: 6.89
